# Tested on: ACHN
# Experiment: NCI tumour cell line growth inhibition, 48 h
Activity calls are given as the source filed them. Rule as the data show it: active = GI50 up to about 1.1 µM and inactive = higher.
Outcome (select one): 1.0 = active, 0.0 = inactive

Check out these entries, answers already filled in.
CCOC(=O)C1N(S(=O)(=O)c2ccc(C)cc2)CCC12c1ccccc1N(C(C)=O)C2C(/C=C/C(=O)OC)=C/C(=O)OC (stereo not given)    0.0
CCOC(=O)c1c(CN2CCCC2)n(-c2ccccc2)c2cc(Br)c(O)cc12    0.0
O=c1c2ccccc2nc(-c2ccc(Cl)cc2)n1O    0.0
COc1cccc(/C=C\c2ccnc3ccccc23)c1    0.0

With those in mind, consider the next molecule.
Query :: Entry C/C(=N\N=C(/[SeH])N1CC2CCC(CC2)C1)c1ccccn1 : call = ?
Result :: 1.0

###

# Tested on: T47D
# Experiment: NCI tumour cell line growth inhibition, 48 h
Activity calls are given as the source filed them. No stated cut-off is given here; in the data, active = GI50 up to about 1.1 µM and inactive = higher. Non-standard residues stand in square brackets, D forms with d. Residues, ends and D or L forms follow the SMILES beside them. *: point of attachment. Bn2Val = CC(C)[C@@H](C(=O)*)N(Cc1ccccc1)Cc1ccccc1; NH(4-Cl-benzyl) = Clc1ccc(CN*)cc1; NMeV = CN[C@H](C(=O)O)C(C)C; dNMeA = CN[C@H](C)C(=O)O
Endpoint Label: GI50

O=C(O)Cc1ccc(Oc2nc3ccccc3nc2-c2cccs2)cc1    20 µM (inactive)
CC1=C(SCc2ccccc2)C(=O)c2ccccc2C1=O    3.18 µM (inactive)
Cc1nn(C(=O)c2ccc(Cl)cc2)c2c1C(/C=C/c1ccccc1)SC(=N)N2 (centres undefined)    > 10 µM (inactive)
CC(C)[C@H](NC(=O)[C@H](C(C)C)N(Cc1ccccc1)Cc1ccccc1)C(=O)N(C)[C@H](C(=O)N1CCC[C@H]1C(=O)N(C)[C@H](C)C(=O)NCc1ccc(Cl)cc1)C(C)C (Bn2Val-V[NMeV]P[dNMeA]-{NH(4-Cl-benzyl)})    3.51 µM (inactive)
O=C1C=C(NCCc2cc(Br)c(O)c(Br)c2)C(=O)c2[nH]cnc21    30.3 µM (inactive)

Take each entry in turn and give its GI50.
1. Cc1c(/N=C/C=C/c2ccccc2)c(=O)n(-c2ccccc2)n1C
2. Cc1c(O)oc2ccccc2c1=O
3. CCCCCCCCCCCCCCCCOc1ccc(/C=C/C2=[N+](CCCl)CCO2)cc1
4. Oc1[nH]c(Nc2ccc(F)c(Cl)c2)nc2ncnc1-2

Result ::
1: 23 µM (inactive); 2: > 100 µM (inactive); 3: > 100 µM (inactive); 4: > 100 µM (inactive)

###

# System: 786-0
# Experiment: NCI tumour cell line growth inhibition, 48 h
Activity calls are given as the source filed them. No stated cut-off is given here; in the data, active = GI50 up to about 1.1 µM and inactive = higher.
Endpoint Label: GI50

Below, 8 compounds whose answers are already recorded.
COc1ccc2[nH]c3c(c2c1)[C@H](c1ccccc1)C[C@@H]1C(=O)N(c2ccccc2)C(=O)[C@H]31    17.5 µM (inactive)
CN(C)C[C@H]1CC[C@@H](CN(C)C)C1=O    5.68 µM (inactive)
NC(=S)N/N=C1\CCCC\C1=C/c1ccccc1    63.8 µM (inactive)
C=CC[C@H](N=C(SC)SC)C(=O)N1C(=O)N(C)[C@@H](C)[C@H]1c1ccccc1    46.6 µM (inactive)
CN(C)/C=N/c1nc2ncn(CCOC(=O)c3ccccc3)c2c(=O)[nH]1    > 100 µM (inactive)
CN(C)S(=O)(=O)c1ccc(Nc2ccc(O)c3c2C(=O)c2c([N+](=O)[O-])ccc(O)c2C3=O)cc1    > 100 µM (inactive)
COC(=O)C1CCc2c(OC)ccc(OC)c2C1=O (configuration not stated)    > 100 µM (inactive)
Nc1nc(Cl)c(N)c(NCC2(CO)CCC2)n1    > 100 µM (inactive)

# batch: return GI50 for each of the 7 compounds below
1. NCCP(=O)(O)O
2. O=C1CC(=O)c2c(Cl)sc(Cl)c21
3. OC1CCC(COC(c2ccccc2)(c2ccccc2)c2ccccc2)O1 (configuration not stated)
4. O=C(O)Cc1ccc(Oc2nc3ccccc3nc2-c2cccs2)cc1
5. COc1cc2c(oc(=O)c3cc4ccoc4c(OC)c32)c2cccc(O)c12
6. COCC(O)Cn1ccnc1[N+](=O)[O-] (configuration not stated)
7. Oc1[nH]c(Nc2ccc(F)c(Cl)c2)nc2ncnc1-2

Result ::
["> 100 µM (inactive)", "> 100 µM (inactive)", "19.4 µM (inactive)", "80 µM (inactive)", "> 100 µM (inactive)", "> 100 µM (inactive)", "82 µM (inactive)"]

Hi! Can you tell me GI50 for each of these compounds?
1. CC1=NN(c2nc(N)nc(CCl)n2)C(C)(C)C1
2. O=C(O)CSc1nnc(COc2ccccc2)n1-c1ccccc1
3. COc1ccc(O[C@H](CO)C[C@@H]2COC(C)(C)O2)cc1
4. CC(=O)Oc1c(C)c2c(c3ncccc13)OC(C)C2 (configuration not stated)
5. O=[N+]([O-])c1ccc(CSc2c3ccccc3nc3ccccc23)cc1

Result ::
1. 5.68 µM (inactive)
2. > 100 µM (inactive)
3. > 100 µM (inactive)
4. 12.8 µM (inactive)
5. 1.93 µM (inactive)

# batch: return GI50 for each of the 7 compounds below
1. COC(=O)C[C@H](CCSC)NC(=O)C[C@H](CCSC)NC(=O)C[C@H](CCSC)NC(=O)OC(C)(C)C
2. C=CC(=C)CCC(Br)C(C)(C)Cl (configuration not stated)
3. CCOC(=O)Nc1cc2c(c(N)n1)N=C(c1ccc(OC)cc1)CN2
4. Cc1cc(-c2c(Br)cc(C(=O)O)n2C)on1
5. COc1ccc(CC/N=C2\OCc3ccccc32)cc1OC
6. N#CC(C#N)=c1[nH]c2cccc3c2-c2c(cccc2c3=C(C#N)C#N)[nH]1
7. Clc1ccc2c(NC3CCC(N4CCCCC4)CC3)ccnc2c1 (configuration not stated)

Result ::
1: 33.6 µM (inactive); 2: > 100 µM (inactive); 3: 0.00363 µM (active); 4: > 100 µM (inactive); 5: 45.3 µM (inactive); 6: > 100 µM (inactive); 7: 15.4 µM (inactive)

###

# Test system: HCT-116
# Experiment: NCI tumour cell line growth inhibition, 48 h
Active and inactive are the calls of the source. No stated cut-off is given here; in the data, active = GI50 up to about 1.1 µM and inactive = higher.
A correct response names exactly one class from True (active), False (inactive)

Recorded results for 3 molecules are shown here.
Nc1ccc(-c2nc3cc(F)ccc3s2)cc1Br    True
O=C(Nc1sccc1S(=O)(=O)c1ccc(Cl)cc1)c1ccc(Cl)cc1Cl    False
O=[N+]([O-])c1nc(-c2ccccn2)[nH]c1[N+](=O)[O-]    False

Query :: # outcome recorded in this test, key = CC1=C(SCc2ccccc2)C(=O)c2ccccc2C1=O
Result :: False

Query :: Field: outcome | Entry: COc1ccc(C2C(Cl)C(=O)N2NC(=O)c2ccccc2O)cc1OC (configuration not stated)
Result :: False

Query :: # outcome recorded in this test, key = O=C1CC(n2ccnc2)c2c(Cl)sc(Cl)c21 (configuration not stated)
Result :: False

Query :: Identify the outcome logged in this assay for the molecule shown: CCOC(=O)NC(Nc1ccc(S(=O)(=O)Nc2ccc(OC)nn2)cc1)(C(F)(F)F)C(F)(F)F
Result :: False

###

# Test system: HL-60
# Experiment: NCI tumour cell line growth inhibition, 48 h
Calls of active or inactive are those of the source. Rule as the data show it: active = GI50 up to about 1.1 µM and inactive = higher.
Endpoint Label: GI50

Examples from the recorded data:
COc1ccc(-c2nc3ccc(C)cc3o2)c(OC)c1    20.4 µM (inactive)
O=C(c1ccc(Cl)cc1Cl)C1[C@H]2C(=O)N(c3ccc(Cc4ccc(N5C(=O)[C@@H]6ON(c7ccccc7)C(C(=O)c7ccc(Cl)cc7Cl)[C@@H]6C5=O)cc4)cc3)C(=O)[C@H]2ON1c1ccccc1 (stereo partly drawn)    > 50 µM (inactive)
Cc1cc(O)nc(NN2C(Cl)C(=O)C2c2ccccc2O)n1 (stereo not drawn)    0.689 µM (active)
COc1ccc(Nc2nc3ccccc3nc2-c2cccs2)cc1OC    > 10 µM (inactive)
C[C@@H]1C[C@@H](O)[C@@]2(O)C13CC(=O)OC(C3)[C@@H](C)[C@@]2(C)CO (stereo partly drawn)    > 100 µM (inactive)
Cc1cc(S(=O)(=O)Nc2nc(N)nc(N3N=CCC3C)n2)c(SCC(=O)O)cc1Cl (stereo not drawn)    > 10 µM (inactive)
O=C1CC(=O)c2c(Cl)sc(Cl)c21    30.3 µM (inactive)
N#Cc1ccc(OCCSCCCCCCCCCCSCCOc2ccc(C#N)cc2)cc1    > 100 µM (inactive)
CCOC(=O)C(C)(C)Oc1ccc2c(=O)cc(-c3ccccc3)oc2c1    14.1 µM (inactive)
CC(=O)NC(C=O)C(O[C@H](C)C(=O)NC(C)C(=O)NC(CCC(N)=O)C(=O)OCc1ccccc1)C(O)C(O)COC(=O)CCNc1c2ccccc2nc2cccc([N+](=O)[O-])c12 (stereo partly drawn)    11.5 µM (inactive)

Below is a list of molecules. For each, state its recorded GI50.
1. CN(C)CCNc1ccc2ncn3c4ccccc4c(=O)c1c23
2. CC1=NN(c2nc(N)nc(CCl)n2)C(C)(C)C1
3. COc1cc2c3c(c1OC)C1(C=CC(=O)C=C1)CC3N(C(=O)OC(C)(C)C(Cl)(Cl)Cl)CC2 (stereo not drawn)

Result ::
7.73 µM (inactive)
4.69 µM (inactive)
1.95 µM (inactive)
